- Test system: vertebral artery
- ASSAY_COMMENT: time course of changes in the vascular resistance of the vertebral artery in anesthetized dogs (T1/2)
- Type: in vivo, dog
- EXPERIMENTAL_CONTEXT: injected with the ED30 doses
Is T1/2 (the time to reach 50% of the resistance drop) at least 10 min? Then True. If not, False.

>>> print(df.to_string())
                                   compound  class_name
0  COc1ccc(CN(CCOC(=O)N2C(C)=NC(C)=C(C(=O)OC(C)C)C2c2ccccc2[N+](=O)[O-])Cc2ccc(Cl)c(Cl)c2)cc1 (stereo not shown)        True
1  CC1=NC(C)=C(C(=O)OC(C)C)C(c2ccccc2[N+](=O)[O-])N1C(=O)OCCN(Cc1ccccc1)Cc1ccc(Cl)c(Cl)c1 (stereo not shown)        True

-- ask Answer whether T1/2 (the time to reach 50% of the resistance drop) of CC1=NC(C)=C(C(=O)OC(C)C)C(c2ccccc2[N+](=O)[O-])N1C(=O)OCCN(Cc1ccc(Cl)cc1)Cc1cccc(Cl)c1 (stereo not shown) is greater than or equal to 10 min.
-- reply True

-- ask Answer whether T1/2 (the time to reach 50% of the resistance drop) of CC1=NC(C)=C(C(=O)OC(C)C)C(c2ccccc2[N+](=O)[O-])N1C(=O)OCCN(Cc1ccccc1)Cc1cccc(Cl)c1 (stereo not shown) is greater than or equal to 10 min.
-- reply True

-- ask Answer whether T1/2 (the time to reach 50% of the resistance drop) of CC1=NC(C)=C(C(=O)OC(C)C)C(c2ccccc2[N+](=O)[O-])N1C(=O)OCCN(Cc1ccccc1)Cc1ccc(C(F)(F)F)cc1 (stereo not shown) is greater than or equal to 10 min.
-- reply False

-- ask Answer whether T1/2 (the time to reach 50% of the resistance drop) of CC1=NC(C)=C(C(=O)OC(C)C)C(c2ccccc2[N+](=O)[O-])N1C(=O)OCCN(Cc1ccccc1)Cc1c(Cl)cccc1Cl (stereo not shown) is greater than or equal to 10 min.
-- reply True

-- ask Answer whether T1/2 (the time to reach 50% of the resistance drop) of COc1ccc(CN(CCOC(=O)N2C(C)=NC(C)=C(C(=O)OC(C)C)C2c2ccccc2[N+](=O)[O-])Cc2ccccc2)cc1 (stereo not shown) is greater than or equal to 10 min.
-- reply False

-- ask Answer whether T1/2 (the time to reach 50% of the resistance drop) of CC1=NC(C)=C(C(=O)OC(C)C)C(c2cccc([N+](=O)[O-])c2)N1C(=O)OCCN(Cc1ccccc1)Cc1ccc(Cl)c(Cl)c1 (stereo not shown) is greater than or equal to 10 min.
-- reply True

-- ask Answer whether T1/2 (the time to reach 50% of the resistance drop) of CC1=NC(C)=C(C(=O)OC(C)C)C(c2ccccc2[N+](=O)[O-])N1C(=O)OCCN(Cc1ccccc1)Cc1ccc(Cl)cc1Cl (stereo not shown) is greater than or equal to 10 min.
-- reply True
